Entries annotated with measured z-score
Experiment: E. coli acrAB mutant growth effects, primary screen, E. coli filamentation inducers, strain DRC39, OD650, 48 h (AID 1179);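 further: screen aims at cell division blockers that make cells filament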
Settings: E. coli DRC39 delta-acrAB growth, higher = more signal, called active from +8 up or from −8 down
Activity calls are given as the source filed them.

Use the examples below as a reference point.
[[record]]
compound = "Cc1cc2c(nc1C)CCCN2CC(C)ON=C[C@@H](C)[C@H](OCc1ccccc1)C(C)C (stereo not given in full)"
result = "-0.549 (inactive)"

[[record]]
compound = "CO[C@@H]1COC(=O)CC=C[C@H](C)COC(=O)[C@H](C)NC(=O)CC=C[C@H]1C"
result = "-0.896 (inactive)"

[[record]]
compound = "CCN1C(=O)[C@H]2[C@H]3[C@H](O)[C@H](O)CC(=NOC)[C@@H]3CC[C@H]2C1=O"
result = "0.953 (inactive)"

[[record]]
compound = "CC(C)CON=C1C[C@@H](O)[C@@H](O)[C@@H]2[C@@H]3C(=O)N(c4cccc(Oc5ccccc5)c4)C(=O)[C@@H]3CC[C@H]12"
result = "0.0947 (inactive)"

[[record]]
compound = "C#CCCCON=C1C[C@@H](O)[C@@H](O)[C@@H]2[C@@H]3C(=O)N(C4CCCCC4)C(=O)[C@@H]3CC[C@H]12"
result = "0.771 (inactive)"

[[record]]
compound = "CC(C)C(=O)N[C@@H]1CCCN1C(=O)C=Cc1ccccc1"
result = "-0.0803 (inactive)"

[[record]]
compound = "CCOC(=O)NN=C1C[C@@H](O)[C@@H](O)[C@@H]2[C@@H]3C(=O)N(Cc4ccccc4)C(=O)[C@@H]3CC[C@@H]12"
result = "-0.951 (inactive)"

[[record]]
compound = "CC(=O)OC[C@H]1O[C@H](C#CC(C)(C)C)C=C[C@@H]1OC(C)=O"
result = "0.221 (inactive)"


Task: Sample COC(=O)[C@H](C)NC(=O)CCC1CC(OC(=O)NCCc2ccc(F)cc2)CC2(CCCC(COC(=O)NCCCN3CCCC3=O)O2)O1 (stereo not given in full) — what was its z-score?
Result: -0.367 (inactive)

Task: Consider the compound shown here: CCOC(=O)[C@H](CC(C)C)NC(=O)CCC1CC(OC(=O)NCc2cccc3ccccc23)CC2(CCCC(COC(=O)NCc3ccccc3)O2)O1 (stereo not given in full) What is its recorded z-score?
Result: -0.102 (inactive)

Task: GET /values?readout=z-score&item= O=C1[C@H]2[C@H]3[C@H](O)[C@H](O)CC(=NOCc4ccccc4)[C@H]3CC[C@H]2C(=O)N1Cc1ccccc1
Result: -0.777 (inactive)

Task: Suppose we examine the compound CCOC(=O)CCN1C(=O)[C@H]2[C@H]3[C@H](O)[C@H](O)CC(=NNC(=O)OCC)[C@@H]3CC[C@H]2C1=O ; what z-score value has been reported?
Result: 0.526 (inactive)

Task: Using the record for CC(C)CCN1CCc2nc(-c3ccccc3)c3c(c2C1)CO[C@@H](C)C3 , report its z-score.
Result: 0.0602 (inactive)

Task: Endpoint output: z-score of CO[C@H]1COC(=O)CC=C[C@@H](C)COC(=O)[C@@H](OCc2ccccc2)C=C[C@@H]1C . Value?
Result: 0.929 (inactive)

Task: Which z-score reading was recorded for the compound CCCNC(=O)OC[C@H]1O[C@H](CCON=C(C)CCN2CCc3nc(-c4ccccc4)c(-c4ccccc4)cc3C2)C=C[C@@H]1Oc1ccc(OC)cc1 ?
Result: -1.58 (inactive)

* * *

Biological target: Follistatin-related protein 3 (Homo sapiens)
Assay: FSTL3 binders on small-molecule microarrays, primary screen, biochemical, small-molecule microarray, 635 nm fluorescence (AID 1105);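 further: score merges emission near 667 nm and signal to noise per printed spot across three slides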
Conditions: FSTL3 binding, higher = more signal
endpoint_name: composite z-score

Some solved cases for reference:
[[record]]
compound = "CCOC(=O)[C@H](Cc1ccccc1)NC(=O)CCC1CC(OC(=O)NCc2cccc3ccccc23)CC2(CCCC(COC(=O)NCCCN3CCCC3=O)O2)O1 (some centres not stated)"
result = 0.804

[[record]]
compound = "CO[C@H]1COC(=O)[C@H](C)NC(=O)CC=C[C@@H](C)[C@H](OC)COC(=O)CC=C[C@@H]1C"
result = 1.45

[[record]]
compound = "CCCNC(=O)OC[C@H]1O[C@H](CCON=C(C)CCN2CCc3nc(-c4ccccc4)c(-c4ccccc4)cc3C2)C=C[C@@H]1Oc1ccc(OC)cc1"
result = 0.254

[[record]]
compound = "C#CCCCON=C1C[C@@H](O)[C@@H](O)[C@@H]2[C@@H]3C(=O)N(C4CCCCC4)C(=O)[C@@H]3CC[C@H]12"
result = 0.348

[[record]]
compound = "Cc1cc2c(nc1C)CCCN2CC(C)ON=C[C@@H](C)[C@H](OCc1ccccc1)C(C)C (some centres not stated)"
result = -0.0161


Task: Form: Entry = CCOC(=O)NN=C1C[C@@H](O)[C@@H](O)[C@@H]2[C@@H]3C(=O)N(Cc4ccccc4)C(=O)[C@@H]3CC[C@@H]12 | System = Follistatin-related protein 3 (Homo sapiens) | composite z-score = ____
Result: 0.59

Task: GET /values?readout=composite z-score&system=Follistatin-related protein 3 (Homo sapiens)&item= CC(C)=NOCc1ccc(-c2cn([C@@H]3COC[C@H]3O)nn2)cc1
Result: 0.273

* * *

Target: Torsin-1A-interacting protein 2 (Homo sapiens)
Assay: LULL1 binders on small-molecule microarray, primary screen, cell lysate, human LULL1 lysate, 635/667 nm fluorescence (AID 1092);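 further: probe is lysate of COS7 cells overexpressing human LULL1; score merges per-feature 667 nm fluorescence with signal-to-noise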
Conditions: hLULL1 lysate binding, 635 nm fluorescence, higher = more signal
# Lookup of reported composite z-score keyed by entry
Just the number, please, no unit after it.

[[record]]
smiles_data = "C#CCCCON=C1C[C@@H](O)[C@@H](O)[C@@H]2[C@@H]3C(=O)N(C4CCCCC4)C(=O)[C@@H]3CC[C@H]12"
endpoint_name = "composite z-score"
recorded_number = 1


Task: Please state recorded composite z-score (tested on Torsin-1A-interacting protein 2 (Homo sapiens)) of CO[C@H]1COC(=O)CC=C[C@@H](C)COC(=O)[C@@H](OCc2ccccc2)C=C[C@@H]1C
Result: -0.404

Task: Lab note: need composite z-score for O=C(NN=C1C[C@@H](O)[C@@H](O)[C@@H]2[C@@H]3C(=O)N(Cc4ccc5c(c4)OCO5)C(=O)[C@@H]3CC[C@H]12)OCc1ccccc1 on Torsin-1A-interacting protein 2 (Homo sapiens), anyone have it?
Result: -0.815

Task: Given the entry C[C@@H]1CC[C@@H](C(=O)O)N[C@H]1c1ccc(-c2ccco2)cc1 , what composite z-score was observed with Torsin-1A-interacting protein 2 (Homo sapiens)?
Result: 0.534

* * *

Reported z-score values are given for each entry in this list.
Assay: basal 3T3-L1 adipocyte mitochondrial potential changes, profiling panel, cell-based, JC-1 fluorescence, 3T3-L1 adipocytes, 24 h, 100 nL compound (AID 1168); further: test concentration not given here
Details: JC-1 mitochondrial fluorescence, higher = more signal, called active from +8 up or from −8 down
Active and inactive are the calls of the source.

Previously resolved entries follow.
[[record]]
smiles_data = "CO[C@H]1COC(=O)[C@H](C)NC(=O)CC=C[C@@H](C)[C@H](OC)COC(=O)CC=C[C@@H]1C"
result = "0.156 (inactive)"

[[record]]
smiles_data = "CC(C)CON=C1C[C@@H](O)[C@@H](O)[C@@H]2[C@@H]3C(=O)N(c4cccc(Oc5ccccc5)c4)C(=O)[C@@H]3CC[C@H]12"
result = "0.461 (inactive)"


Task: Request the reported z-score associated with CCOC(=O)CCN1C(=O)[C@H]2[C@H]3[C@H](O)[C@H](O)CC(=NNC(=O)OCC)[C@@H]3CC[C@H]2C1=O
Result: -0.541 (inactive)

Task: Name the recorded z-score for CC(=O)OC[C@H]1O[C@H](C#CC(C)(C)C)C=C[C@@H]1OC(C)=O .
Result: 0.386 (inactive)

Task: Consider the compound shown here: CCOC(=O)NN=C1C[C@@H](O)[C@@H](O)[C@@H]2[C@@H]3C(=O)N(Cc4ccc5c(c4)OCO5)C(=O)[C@@H]3CC[C@@H]12 What is its recorded z-score?
Result: 1.11 (inactive)

* * *

Biological target: Torsin-1A-interacting protein 2 (Homo sapiens) (UniProt Q8NFQ8)
Sequence (Q8NFQ8 whole entry, looked up): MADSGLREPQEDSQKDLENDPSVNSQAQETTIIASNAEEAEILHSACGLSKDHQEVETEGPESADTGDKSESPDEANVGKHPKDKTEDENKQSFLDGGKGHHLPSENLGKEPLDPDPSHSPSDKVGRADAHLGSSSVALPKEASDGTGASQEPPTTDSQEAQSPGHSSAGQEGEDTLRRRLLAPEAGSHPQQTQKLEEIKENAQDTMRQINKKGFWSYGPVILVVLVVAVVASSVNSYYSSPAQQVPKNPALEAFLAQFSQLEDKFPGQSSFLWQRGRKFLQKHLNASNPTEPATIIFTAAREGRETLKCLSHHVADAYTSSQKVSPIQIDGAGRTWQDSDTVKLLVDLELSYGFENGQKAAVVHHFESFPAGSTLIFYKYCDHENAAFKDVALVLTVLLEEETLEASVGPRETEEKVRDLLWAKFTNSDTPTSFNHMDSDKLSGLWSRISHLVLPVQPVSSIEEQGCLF
Assay: LULL1 binders on small-molecule microarray, primary screen, cell lysate, human LULL1 lysate, 635/667 nm fluorescence (AID 1092);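 further: probe is lysate of COS7 cells overexpressing human LULL1; score merges per-feature 667 nm fluorescence with signal-to-noise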
Conditions: hLULL1 lysate binding, 635 nm fluorescence, higher = more signal
endpoint_name: composite z-score
Answer field: number only, no words.

[[record]]
smiles_data = "CO[C@@H]1COC(=O)CC=C[C@H](C)COC(=O)[C@H](C)NC(=O)CC=C[C@H]1C"
target = "Torsin-1A-interacting protein 2 (Homo sapiens) (UniProt Q8NFQ8)"
recorded_number = -0.654

[[record]]
smiles_data = "CO[C@H]1COC(=O)[C@H](C)NC(=O)CC=C[C@@H](C)[C@H](OC)COC(=O)CC=C[C@@H]1C"
target = "Torsin-1A-interacting protein 2 (Homo sapiens) (UniProt Q8NFQ8)"
recorded_number = -0.247

[[record]]
smiles_data = "CC(C)C(=O)N[C@@H]1CCCN1C(=O)C=Cc1ccccc1"
target = "Torsin-1A-interacting protein 2 (Homo sapiens) (UniProt Q8NFQ8)"
recorded_number = 0.783


// next entry
Task: composite z-score for CC(C)CON=C1C[C@@H](O)[C@@H](O)[C@@H]2[C@@H]3C(=O)N(c4cccc(Oc5ccccc5)c4)C(=O)[C@@H]3CC[C@H]12 ?
Result: 0.897
